# protocol summary: Pharmacokinetics in vivo (mean plasma concentrations)
# assay setup: male, CD-1, mouse, in vivo, po, 100 mg/kg, Mean plasma concentration, mouse 100 mg/kg p.o., sampling time 90 min

{"compound": "CC(C)c1cnn2c(NCc3ccccc3-n3cccn3)nc(OC3CCCNC3)nc12 (stereo not shown)", "concentration at 90 min / ng/mL": 713}

====

# protocol summary: Plasma protein binding, human
# Format: in vitro ADME
# assay setup: read-out: Plasma protein binding (% bound) human (converted)

{"molecule": "CC(C)c1cnn2c(NCc3ccccc3-n3cccn3)nc(OC3CCCNC3)nc12 (stereo not shown)", "fraction unbound": 0.142}

====

# protocol summary: Pharmacokinetics in vivo (mean plasma concentrations)
# assay setup: male, CD-1, mouse, in vivo, po, 100 mg/kg, Cz, mouse 100 mg/kg p.o.
# Description: Later, this drug served as the parental compound for the generation of novel covalently binding CDK7-directed warheads (Figure 2A, panels a–h). To reveal LDC4297, a chemical library was designed in silico for the targeting of kinases and was applied for screening against human CDK7–cyclin H–MAT1 by the use of in vitro kinase assays. […] In particular, a kinome-wide analysis with 333 individual kinases was performed to assess compound selectivity in vitro. […]

{"molecule": "CC(C)c1cnn2c(NCc3ccccc3-n3cccn3)nc(OC3CCCNC3)nc12 (stereo not shown)", "unit string": "ng/mL", "concentration at 8 h": 43.2}

====

# protocol summary: Pharmacokinetics in vivo (mean plasma concentrations)
# assay setup: male, CD-1, mouse, in vivo, po, 100 mg/kg, Mean plasma concentration, mouse 100 mg/kg p.o., sampling time 30 min
# Protocol: Later, this drug served as the parental compound for the generation of novel covalently binding CDK7-directed warheads (Figure 2A, panels a–h). To reveal LDC4297, a chemical library was designed in silico for the targeting of kinases and was applied for screening against human CDK7–cyclin H–MAT1 by the use of in vitro kinase assays. […] In particular, a kinome-wide analysis with 333 individual kinases was performed to assess compound selectivity in vitro. […]

{"compound": "CC(C)c1cnn2c(NCc3ccccc3-n3cccn3)nc(OC3CCCNC3)nc12 (stereo not shown)", "concentration at 30 min": "> 1200 ng/mL"}

====

Measured EC50 by item
# Tested on: HCMV UL97-C592G
# protocol summary: HCMV reporter-based antiviral assay, drug-resistant mutant
# Assay type: cell-based, human cytomegalovirus
# assay setup: Human betaherpesvirus 5, read-out: Measured EC50 ref. drugs UL97-C592G
# Experimental: […] Due to the fact that the HCMV-encoded protein kinase pUL97 represents a functional and structural ortholog of the host CDKs (vCDK/pUL97), the viral mutants of ORF-UL97 were assessed for sensitivity against CDK7 inhibitors.

{"cpd smiles": "Nc1nc(O)c2ncn(COC(CO)CO)c2n1", "unit string": "µM", "EC50": 4.67}
{"cpd smiles": "CC(C)Nc1nc2cc(Cl)c(Cl)cc2n1[C@H]1O[C@@H](CO)[C@H](O)[C@@H]1O", "unit string": "µM", "EC50": 0.77}
{"cpd smiles": "Nc1ccn(C[C@@H](CO)OCP(=O)(O)O)c(=O)n1", "unit string": "µM", "EC50": 0.4}

====

# protocol summary: Solubility (SolRank)
# Format: physicochemical
# assay setup: pH 7.4
recorded metric: solubility (µM)

{"compound": "CC(C)c1cnn2c(NCc3ccccc3-n3cccn3)nc(OC3CCCNC3)nc12 (stereo not shown)", "recorded metric": "solubility", "quantitative readout": 373}
